# PROTOCOL: The drug is tested on WLS-069 corresponding to human gut metagenome with ENA study accession number: PRJEB37062 and ENA sample accession number: ERS12561748 for biotransformation under anaerobic condition. The drug concentrations were measured over 9 timepoints collected between 0 and 24 hours of incubation by liquid-chromatography-coupled mass spectrometry (LC–MS); also: call rule not given here
# MEASUREMENT_SETUP: 2 µM
ASSAY_READOUT: Bacterial Biotransformation

INSERT INTO measurements (molecule, endpoint_result) VALUES
  ('CCCC(C)(COC(N)=O)COC(=O)NC(C)C (centres undefined)', 'Compound metabolized'),
  ('CCOC(=O)[C@H](CCc1ccccc1)N[C@@H](C)C(=O)N1CCC[C@H]1C(=O)O.O=C(O)/C=C\C(=O)O [ENALAPRIL MALEATE]', 'Compound NOT metabolized'),
  ('c1ccc2[nH]c(-c3cscn3)nc2c1', 'Compound NOT metabolized'),
  ('CC[C@H](C)C(=O)O[C@H]1CCC=C2C=C[C@H](C)[C@H](CC[C@@H]3C[C@@H](O)CC(=O)O3)[C@H]21', 'Compound metabolized');

* * *

# PROTOCOL: The drug is tested on Z-011 corresponding to mouse gut metagenome with ENA study accession number: PRJEB37062 and ENA sample accession number: ERS12561811 for biotransformation under anaerobic condition. The drug concentrations were measured over 9 timepoints collected between 0 and 24 hours of incubation by liquid-chromatography-coupled mass spectrometry (LC–MS)
# MEASUREMENT_SETUP: 2 µM
ASSAY_READOUT: Bacterial Biotransformation

Use these answered entries as a reference point.
INSERT INTO results (compound, assay_readout, endpoint_result) VALUES
  ('Nc1nc(NC2CC2)c2ncn([C@H]3C=C[C@@H](CO)C3)c2n1.Nc1nc(NC2CC2)c2ncn([C@H]3C=C[C@@H](CO)C3)c2n1.O=S(=O)(O)O [ABACAVIR SULFATE]', 'Bacterial Biotransformation', 'Compound metabolized'),
  ('CC(=O)SCC(Cc1ccccc1)C(=O)NCC(=O)OCc1ccccc1 (configuration not stated) [RACECADOTRIL]', 'Bacterial Biotransformation', 'Compound metabolized'),
  ('COc1ccc(C(CN(C)C)C2(O)CCCCC2)cc1 (configuration not stated) [VENLAFAXINE]', 'Bacterial Biotransformation', 'Compound NOT metabolized'),
  ('CN1CCC(=C2c3ccccc3CC(=O)c3sccc32)CC1.O=C(O)/C=C/C(=O)O [KETOTIFEN FUMARATE]', 'Bacterial Biotransformation', 'Compound NOT metabolized');

Exam item: Quick one: Bacterial Biotransformation of COc1cc(C(=O)NCc2ccc(OCCN(C)C)cc2)cc(OC)c1OC [TRIMETHOBENZAMIDE] ?
Marked response: Compound NOT metabolized

Exam item: Quick one: Bacterial Biotransformation of CC(=O)CCCCn1c(=O)c2c(ncn2C)n(C)c1=O [PENTOXIFYLLINE] ?
Marked response: Compound NOT metabolized

Exam item: Quick one: Bacterial Biotransformation of C[N+]12CCC(CC1)C(OC(=O)C(O)(c1ccccc1)c1ccccc1)C2.[Br-] (configuration not stated) [CLIDINIUM BROMIDE] ?
Marked response: Compound NOT metabolized

Exam item: Quick one: Bacterial Biotransformation of C=CC[C@@H]1/C=C(\C)C[C@H](C)C[C@H](OC)[C@H]2O[C@@](O)(C(=O)C(=O)N3CCCC[C@H]3C(=O)O[C@H](/C(C)=C/[C@@H]3CC[C@@H](O)[C@H](OC)C3)[C@H](C)[C@@H](O)CC1=O)[C@H](C)C[C@@H]2OC.O [TACROLIMUS] ?
Marked response: Compound NOT metabolized

Exam item: Quick one: Bacterial Biotransformation of CSc1ccc2c(c1)C(N1CCN(C)CC1)Cc1ccccc1S2.O=C(O)/C=C\C(=O)O (configuration not stated) ?
Marked response: Compound metabolized

Exam item: Quick one: Bacterial Biotransformation of N=C(N)NC(=O)Cc1c(Cl)cccc1Cl [GUANFACINE] ?
Marked response: Compound NOT metabolized

Exam item: Quick one: Bacterial Biotransformation of CCc1cccc2c3c([nH]c12)C(CC)(CC(=O)O)OCC3 (configuration not stated) [ETODOLAC] ?
Marked response: Compound NOT metabolized

Exam item: Quick one: Bacterial Biotransformation of CC(C)NCC(O)COc1ccc(CC(N)=O)cc1 (configuration not stated) [ATENOLOL] ?
Marked response: Compound NOT metabolized

* * *

# MEASUREMENT_SETUP: human gut metagenome, 24 h, 2 µM
ASSAY_READOUT: Bacterial Biotransformation

Use these answered entries as a reference point.
INSERT INTO results (molecule, endpoint_result) VALUES
  ('CC(C)(C)N.CCC[C@H](N[C@@H](C)C(=O)N1[C@H](C(=O)O)C[C@@H]2CCCC[C@@H]21)C(=O)OCC', 'Compound metabolized'),
  ('CCOc1ccccc1OCCN[C@H](C)Cc1ccc(OC)c(S(N)(=O)=O)c1.Cl [TAMSULOSIN HYDROCHLORIDE]', 'Compound NOT metabolized'),
  ('C[N+]12CCC(CC1)C(OC(=O)C(O)(c1ccccc1)c1ccccc1)C2.[Br-] (stereo not given) [CLIDINIUM BROMIDE]', 'Compound metabolized'),
  ('CN1CCC(=C2c3ccccc3CC(=O)c3sccc32)CC1.O=C(O)/C=C/C(=O)O [KETOTIFEN FUMARATE]', 'Compound metabolized'),
  ('CC(C)(C)NCC(O)COc1cccc2c1CC(O)C(O)C2 (stereo not given)', 'Compound NOT metabolized');

Exam item: Quick one: Bacterial Biotransformation of C=C[C@H]1CN2CC[C@H]1C[C@H]2[C@H](O)c1ccnc2ccc(OC)cc12.C=C[C@H]1CN2CC[C@H]1C[C@H]2[C@H](O)c1ccnc2ccc(OC)cc12.O.O.O=S(=O)(O)O [QUININE SULFATE] ?
Marked response: Compound metabolized

Exam item: Quick one: Bacterial Biotransformation of COc1cc(C(=O)NCc2ccc(OCCN(C)C)cc2)cc(OC)c1OC [TRIMETHOBENZAMIDE] ?
Marked response: Compound NOT metabolized

Exam item: Quick one: Bacterial Biotransformation of "CC(=O)Oc1ccc(C(c2ccc(OC(C)=O)cc2)c2ccccn2)cc1" ?
Marked response: Compound metabolized

Exam item: Quick one: Bacterial Biotransformation of CCOC(=O)[C@H](CCc1ccccc1)N[C@@H](C)C(=O)N1CCC[C@H]1C(=O)O.O=C(O)/C=C\C(=O)O [ENALAPRIL MALEATE] ?
Marked response: Compound NOT metabolized

Exam item: Quick one: Bacterial Biotransformation of CCOC(=O)C1=C(C)NC(C)=C(C(=O)OC)C1c1cccc([N+](=O)[O-])c1 (stereo not given) ?
Marked response: Compound metabolized

Exam item: Quick one: Bacterial Biotransformation of Br.CN1CCC[C@@H]1Cc1c[nH]c2ccc(CCS(=O)(=O)c3ccccc3)cc12 [ELETRIPTAN HYDROBROMIDE] ?
Marked response: Compound metabolized

* * *

# MEASUREMENT_SETUP: human gut metagenome, 24 h, 2 µM
ASSAY_READOUT: Bacterial Biotransformation

Use these answered entries as a reference point.
INSERT INTO measurements (compound, assay_readout, endpoint_result) VALUES
  ('OC(c1cc(C(F)(F)F)nc2c(C(F)(F)F)cccc12)C1CCCCN1 (stereo not drawn) [MEFLOQUINE]', 'Bacterial Biotransformation', 'Compound metabolized'),
  ('COC(=O)[C@H](c1ccccc1Cl)N1CCc2sccc2C1.O=S(=O)(O)O [CLOPIDOGREL BISULFATE]', 'Bacterial Biotransformation', 'Compound metabolized'),
  ('CCOC(=O)[C@H](CCc1ccccc1)N[C@@H](C)C(=O)N1Cc2ccccc2C[C@H]1C(=O)O', 'Bacterial Biotransformation', 'Compound metabolized'),
  ('CC(=O)OCC(CCn1cnc2cnc(N)nc21)COC(C)=O [FAMCICLOVIR]', 'Bacterial Biotransformation', 'Compound metabolized'),
  ('Nc1nc(NC2CC2)c2ncn([C@H]3C=C[C@@H](CO)C3)c2n1.Nc1nc(NC2CC2)c2ncn([C@H]3C=C[C@@H](CO)C3)c2n1.O=S(=O)(O)O [ABACAVIR SULFATE]', 'Bacterial Biotransformation', 'Compound metabolized'),
  ('CC#CCn1c(N2CCC[C@@H](N)C2)nc2c1c(=O)n(Cc1nc(C)c3ccccc3n1)c(=O)n2C [LINAGLIPTIN]', 'Bacterial Biotransformation', 'Compound NOT metabolized'),
  ('CN(C)C(=O)Oc1cc(OC(=O)N(C)C)cc(C(O)CNC(C)(C)C)c1 (stereo not drawn) [BAMBUTEROL]', 'Bacterial Biotransformation', 'Compound NOT metabolized');

Read the next record carefully.
Exam item: Quick one: Bacterial Biotransformation of CCCN1C[C@H](CSC)C[C@@H]2c3cccc4[nH]cc(c34)C[C@H]21.CS(=O)(=O)O [PERGOLIDE MESYLATE] ?
Marked response: Compound NOT metabolized

// data source = ChEMBL document CHEMBL5724914
